system: HL60 cells; assay: Differentiation of HL60 cells (Dif50); format: cell-based, human; details: Homo sapiens, HL-60, read-out: HL-60, Dif50, HL-60 cells, differentiation; no unit in head or cell (other cells of the column print uM)
quantity: EC50

>>> df
                                   molecule      system  quantity  valuereported
0  O=C1CC2(SCC(F)(F)F)CC(SCC(F)(F)F)[C@@H]3C[C@@]2(O1)[C@H]1CCCCN31 (stereo partly shown) [INVS-MG-5A]  HL60 cells      EC50    5 to 7.5 µM
1  O=C1O[C@]23CC4OC4[C@H](ON4CCCC[C@@H]42)C32OC12 (stereo partly shown) [INVS-MG-76-aq]  HL60 cells      EC50        > 30 µM
2  COC(OC)[C@H]1CCC2N1[C@@H]1C=CC3=CC(=O)O[C@@]32C1 (stereo partly shown) [INVG-Z-27-4 = INVS-MG-52D]  HL60 cells      EC50   3.25 to 5 µM
3  CO[C@H]1CC2=CC(=O)O[C@@]23C[C@@H]1N1CCCC[C@@H]13 [INVS-MG-97-IIB]  HL60 cells      EC50        > 30 µM

---

tested on: HCT116 P53−/−; assay: Growth inhibition of colon cancer HCT116 P53−/−; assay type: cell-based; conditions: colon cancer HCT116 P53−/−
quantity: IC50 (nM)

In [3]: df
Out[3]:
                             moleculesmiles         system  quantity  unitabbrev  valuereported
0  O=C1C=C2C(C#Cc3ccsc3)=C[C@@H]3C[C@@]2(O1)[C@H]1CCCCN31  HCT116 P53−/−      IC50          nM           2200

---

system: SKOV3 P53−/−; test: Growth inhibition of ovary cancer SKOV3 P53−/−; type: cell-based; conditions: ovary cancer SKOV3 P53−/−
quantity: IC50 (nM)

                                   molecule  quantity  unitabbrev  valuereported
0  O=C1C=C2C(C#Cc3ccsc3)=C[C@@H]3C[C@@]2(O1)[C@H]1CCCCN31 [INVS-MG-136-III]      IC50          nM           1100
1  O=C1C=C2C(C#Cc3ccsc3)=C[C@@H]3C[C@@]2(O1)[C@H]1CCCCN31 [INVS-MG-136B]      IC50          nM           2900

---

Each entry below lists one item and its recorded EC50 value.
Tested on: HL60 cells
Assay: Differentiation of HL60 cells (Dif50)
Format: cell-based, human
Conditions: read-out: HL-60, Dif50; HL-60 cells, differentiation; no unit in head or cell (other cells of the column print uM)
Description: The tested compounds and their respective results are produced in Table 1. Those skilled in the art will appreciate that combining the securinine and/or norsecurinine analogs with other differentiation inducing agents, such as all-trans retinoic acid, cytarabine and/or an anthracycline, would be of further benefit. […] The analogs were then tested and evaluated on the ability to affect differentiation and growth of HL60 cells.
quantity: EC50

>>> print(df.to_string())
                                   compound  valuereported
0  O=C1C=C2C=C[C@@H]3C[C@@]2(O1)[C@H]1CCCCN31 [INVS-MG-94-aq]        > 30 µM
1  O=C1O[C@]23CC4OC4[C@H](ON4CCCC[C@@H]42)C32OC12 (some centres unmarked) [INVS-MG-77-aq]        > 30 µM

---

tested on: SKOV3 P53+/+; experiment: Growth inhibition of ovary cancer SKOV3 P53+/+; format: cell-based; conditions: Homo sapiens, SK-OV-3, ovary cancer SKOV3 P53+/+
Using IC50 as the sorting value, the categories are A (below 1 µM), B (1 µM to below 2 µM), C (2 µM or more)

>>> df
                                    molecule  qualitativelabel
 0  O=C1C=C2C(C#Cc3cc4ccccc4c4ccccc34)=C[C@@H]3C[C@@]2(O1)[C@H]1CCCCN31 [INVS-MG-158B]                 B
 1  CN(C)c1ccc(C#CC2=C[C@@H]3C[C@@]4(OC(=O)C=C24)[C@H]2CCCCN32)cc1 [INVS-MG-146B]                 A
 2  CN(C)CC#CC1=C[C@@H]2C[C@@]3(OC(=O)C=C13)[C@H]1CCCCN21 [INVS-MG-111B]                 B
 3  O=C1C=C2C(I)=C[C@@H]3C[C@@]2(O1)[C@H]1CCCCN31                 B
 4  COc1ccc2cc(C#CC3=C[C@@H]4C[C@@]5(OC(=O)C=C35)[C@H]3CCCCN43)ccc2c1 [INVS-MG-157B]                 A
 5  O=C1C=C2C(C#Cc3ccccc3)=C[C@@H]3C[C@@]2(O1)[C@H]1CCCCN31 [INVS-MG-110B]                 C
 6  N#Cc1ccc(C#CC2=C[C@@H]3C[C@@]4(OC(=O)C=C24)[C@H]2CCCCN32)cc1 [INVS-MG-164B]                 C
 7  CCN(CC)CC#CC1=C[C@@H]2C[C@@]3(OC(=O)C=C13)[C@H]1CCCCN21 [INVS-MG-145A]                 A
 8  COc1cccc(C#CC2=C[C@@H]3C[C@@]4(OC(=O)C=C24)[C@H]2CCCCN32)c1 [INVS-MG-165B]                 C
 9  C=C(C)CC#CC1=C[C@@H]2C[C@@]3(OC(=O)C=C13)[C@H]1CCCCN21 [INVS-MG-132A]                 C
10  N#CCCCC#CC1=C[C@@H]2C[C@@]3(OC(=O)C=C13)[C@H]1CCCCN21 [INVS-MG-125A]                 B
11  CCCN(CC#CC1=C[C@@H]2C[C@@]3(OC(=O)C=C13)[C@H]1CCCCN21)CCC [INVS-MG-152A]                 A
12  CCOC#CC1=C[C@@H]2C[C@@]3(OC(=O)C=C13)[C@H]1CCCCN21 [INVS-MG-120A]                 B
13  O=C1C=C2C(C#Cc3ccc(OC(F)(F)F)cc3)=C[C@@H]3C[C@@]2(O1)[C@H]1CCCCN31 [INVS-MG-166B]                 C
14  COc1ccc(C#CC2=C[C@@H]3C[C@@]4(OC(=O)C=C24)[C@H]2CCCCN32)cc1 [INVS-MG-134C]                 B

---

System: HL60 cells
Assay: Growth of HL60 cells (IC50)
Format: cell-based, human
Conditions: read-out: HL-60, IC50; HL-60 cells, growth
Method: The analogs were then tested and evaluated on the ability to affect differentiation and growth of HL60 cells.
pIC50: −log10 of the molar value.
quantity: pIC50

                             moleculesmiles  quantity  valuereported
0  COC(OC)[C@H]1CC[C@H]2N1[C@@H]1C=CC3=CC(=O)O[C@@]32C1     pIC50         < 5.30

---

system: OCI; assay: Growth inhibition of AML cell line OCI; assay type: cell-based, human; settings: Homo sapiens
quantity: IC50

In [3]: df
Out[3]:
                                   compound  valuereported
0  COc1ccc(C#CC2=C[C@@H]3C[C@@]4(OC(=O)C=C24)[C@H]2CCCCN32)cc1 [INVS-MG-134C]          80 nM
1  O=C1C=C2C(I)=C[C@@H]3C[C@@]2(O1)[C@H]1CCCCN31         100 nM
2  CCCN(CC#CC1=C[C@@H]2C[C@@]3(OC(=O)C=C13)[C@H]1CCCCN21)CCC [INVS-MG-152A]          70 nM
3  O=C1C=C2C(C#Cc3ccc(OC(F)(F)F)cc3)=C[C@@H]3C[C@@]2(O1)[C@H]1CCCCN31 [INVS-MG-166B]       > 300 nM
4  C=C(C)CC#CC1=C[C@@H]2C[C@@]3(OC(=O)C=C13)[C@H]1CCCCN21 [INVS-MG-132A]         200 nM
5  CN(C)CC#CC1=C[C@@H]2C[C@@]3(OC(=O)C=C13)[C@H]1CCCCN21 [INVS-MG-111B]          90 nM
6  O=C1C=C2C(C#Cc3ccccc3)=C[C@@H]3C[C@@]2(O1)[C@H]1CCCCN31 [INVS-MG-110B]          80 nM
